Assign Ratio IC50 to each entry below.
assay: Selectivity index, ratio of IC50 for AChE (unknown origin) to IC50 for equine serum BuChE
I only need the number, thanks.

Any idea what its Ratio IC50 is? The compound is C=CC(=O)N1C/C(=C\c2ccccc2)C(=O)/C(=C/c2ccccc2)C1
0.8

Another: O=C1/C(=C/c2cccc([N+](=O)[O-])c2)CN(C(=O)C[C@H]2C[C@H]3CCCN3[C@]23C(=O)Nc2ccccc23)C/C1=C\c1cccc([N+](=O)[O-])c1 (racemic)
0.33

Follow-up item: Cc1ccccc1/C=C1\CN(C(=O)C[C@H]2C[C@H]3CCCN3[C@]23C(=O)Nc2ccccc23)C[C@@]2(C[C@H]3CCCN3[C@@]23C(=O)Nc2ccccc23)C1=O (racemic)
2.12

# iterate: O=C1/C(=C/c2ccc(Cl)cc2)CN(C(=O)C[C@H]2C[C@H]3CCCN3[C@]23C(=O)Nc2ccccc23)C/C1=C\c1ccc(Cl)cc1 (racemic)
0.1

What do you have for O=C(C[C@H]1C[C@H]2CCCN2[C@]12C(=O)Nc1ccccc12)N1C/C(=C\c2cccc([N+](=O)[O-])c2)C(=O)[C@]2(C[C@H]3CCCN3[C@@]23C(=O)Nc2ccccc23)C1 (racemic) ?
1.1

Then Cc1ccccc1/C=C1\CN(C(=O)C[C@H]2C[C@H]3CCCN3[C@]23C(=O)Nc2ccccc23)C/C(=C\c2ccccc2C)C1=O (racemic) ?
0.7

Field entry: O=C(C[C@H]1C[C@H]2CCCN2[C@]12C(=O)Nc1ccccc12)N1C/C(=C\c2ccc(Cl)cc2Cl)C(=O)[C@]2(C[C@H]3CCCN3[C@@]23C(=O)Nc2ccccc23)C1 (racemic)
0.74

One more compound: C=CC(=O)N1C/C(=C\c2cccc3ccccc23)C(=O)/C(=C/c2cccc3ccccc23)C1
0.6

Also COc1ccccc1/C=C1\CN(C(=O)C[C@H]2C[C@H]3CCCN3[C@]23C(=O)Nc2ccccc23)C[C@@]2(C[C@H]3CCCN3[C@@]23C(=O)Nc2ccccc23)C1=O (racemic) ?
0.59

One more compound: O=C(C[C@H]1C[C@H]2CCCN2[C@]12C(=O)Nc1ccccc12)N1C/C(=C\c2ccc(Cl)cc2)C(=O)[C@]2(C[C@H]3CCCN3[C@@]23C(=O)Nc2ccccc23)C1 (racemic)
0.73

What do we get for O=C(C[C@H]1C[C@H]2CCCN2[C@]12C(=O)Nc1ccccc12)N1C/C(=C\c2cccc3ccccc23)C(=O)[C@]2(C[C@H]3CCCN3[C@@]23C(=O)Nc2ccccc23)C1 (racemic) ?
3.21

Do the same for O=C(C[C@H]1C[C@H]2CCCN2[C@]12C(=O)Nc1ccccc12)N1C/C(=C\c2ccccc2Cl)C(=O)[C@]2(C[C@H]3CCCN3[C@@]23C(=O)Nc2ccccc23)C1 (racemic) please
1.16

Please do the same for C=CC(=O)N1C/C(=C\c2ccccc2OC)C(=O)/C(=C/c2ccccc2OC)C1 as well.
0.3

What would you report for C=CC(=O)N1C/C(=C\c2ccc(Cl)cc2)C(=O)/C(=C/c2ccc(Cl)cc2)C1 ?
0.58

Item: C=CC(=O)N1C/C(=C\c2ccccc2Cl)C(=O)/C(=C/c2ccccc2Cl)C1
0.45

One more compound: C=CC(=O)N1C/C(=C\c2ccc(Cl)cc2Cl)C(=O)/C(=C/c2ccc(Cl)cc2Cl)C1
0.54

Try the compound C=CC(=O)N1C/C(=C\c2ccc(C)cc2)C(=O)/C(=C/c2ccc(C)cc2)C1
0.51

Next up: C=CC(=O)N1C/C(=C\c2ccccc2C)C(=O)/C(=C/c2ccccc2C)C1
0.58

Request: O=C(C[C@H]1C[C@H]2CCCN2[C@]12C(=O)Nc1ccccc12)N1C/C(=C\c2ccccc2)C(=O)[C@]2(C[C@H]3CCCN3[C@@]23C(=O)Nc2ccccc23)C1 (racemic)
1.08

Next: O=C1/C(=C/c2ccccc2)CN(C(=O)C[C@H]2C[C@H]3CCCN3[C@]23C(=O)Nc2ccccc23)C/C1=C\c1ccccc1 (racemic)
1.07

* * *

assay: Selectivity index, ratio of IC50 for equine serum BuChE to IC50 for AChE (unknown origin)
Metric: Ratio IC50
Please reply with the value in numeric form only.

Requested field: Ratio IC50. Item: O=C1/C(=C/c2ccccc2)CN(C(=O)C[C@H]2C[C@H]3CCCN3[C@]23C(=O)Nc2ccccc23)C/C1=C\c1ccccc1 (racemic)
0.93

Okay, and O=C1/C(=C/c2cccc([N+](=O)[O-])c2)CN(C(=O)C[C@H]2C[C@H]3CCCN3[C@]23C(=O)Nc2ccccc23)C/C1=C\c1cccc([N+](=O)[O-])c1 (racemic) ?
3.03

Can you handle O=C1/C(=C/c2ccc(F)cc2)CN(C(=O)C[C@H]2C[C@H]3CCCN3[C@]23C(=O)Nc2ccccc23)C/C1=C\c1ccc(F)cc1 (racemic) next?
0.2

Also O=C1/C(=C/c2ccc(Cl)cc2)CN(C(=O)C[C@H]2C[C@H]3CCCN3[C@]23C(=O)Nc2ccccc23)C/C1=C\c1ccc(Cl)cc1 (racemic) , if possible.
9.6

Ok, now C=CC(=O)N1C/C(=C\c2ccccc2F)C(=O)/C(=C/c2ccccc2F)C1
4.58

Next record, please: O=C1/C(=C/c2ccccc2Cl)CN(C(=O)C[C@H]2C[C@H]3CCCN3[C@]23C(=O)Nc2ccccc23)C/C1=C\c1ccccc1Cl (racemic)
1.66

Next entry: C=CC(=O)N1C/C(=C\c2cccc3ccccc23)C(=O)/C(=C/c2cccc3ccccc23)C1
1.67

Next compound: C=CC(=O)N1C/C(=C\c2ccccc2C)C(=O)/C(=C/c2ccccc2C)C1
1.73

Next entry: COc1ccccc1/C=C1\CN(C(=O)C[C@H]2C[C@H]3CCCN3[C@]23C(=O)Nc2ccccc23)C[C@@]2(C[C@H]3CCCN3[C@@]23C(=O)Nc2ccccc23)C1=O (racemic)
1.68

Same read-out for Cc1ccc(/C=C2\CN(C(=O)C[C@H]3C[C@H]4CCCN4[C@]34C(=O)Nc3ccccc34)C[C@@]3(C[C@H]4CCCN4[C@@]34C(=O)Nc3ccccc34)C2=O)cc1 (racemic) ?
0.91

Please give the result for Cc1ccccc1/C=C1\CN(C(=O)C[C@H]2C[C@H]3CCCN3[C@]23C(=O)Nc2ccccc23)C[C@@]2(C[C@H]3CCCN3[C@@]23C(=O)Nc2ccccc23)C1=O (racemic) too.
0.47

Entry to check: Cc1ccc(/C=C2\CN(C(=O)C[C@H]3C[C@H]4CCCN4[C@]34C(=O)Nc3ccccc34)C/C(=C\c3ccc(C)cc3)C2=O)cc1 (racemic)
1.26

Next entry: O=C(C[C@H]1C[C@H]2CCCN2[C@]12C(=O)Nc1ccccc12)N1C/C(=C\c2ccc(Cl)cc2)C(=O)[C@]2(C[C@H]3CCCN3[C@@]23C(=O)Nc2ccccc23)C1 (racemic)
1.38

Quick one: O=C(C[C@H]1C[C@H]2CCCN2[C@]12C(=O)Nc1ccccc12)N1C/C(=C\c2ccc(Cl)cc2Cl)C(=O)[C@]2(C[C@H]3CCCN3[C@@]23C(=O)Nc2ccccc23)C1 (racemic)
1.36

Next compound up: O=C(C[C@H]1C[C@H]2CCCN2[C@]12C(=O)Nc1ccccc12)N1C/C(=C\c2ccccc2)C(=O)[C@]2(C[C@H]3CCCN3[C@@]23C(=O)Nc2ccccc23)C1 (racemic)
0.93

Next record, please: C=CC(=O)N1C/C(=C\c2ccccc2Cl)C(=O)/C(=C/c2ccccc2Cl)C1
2.24

And for C=CC(=O)N1C/C(=C\c2ccc(Cl)cc2)C(=O)/C(=C/c2ccc(Cl)cc2)C1 ?
1.73

For C=CC(=O)N1C/C(=C\c2ccc(C)cc2)C(=O)/C(=C/c2ccc(C)cc2)C1 then?
1.94

Let us now turn to O=C(C[C@H]1C[C@H]2CCCN2[C@]12C(=O)Nc1ccccc12)N1C/C(=C\c2ccccc2Cl)C(=O)[C@]2(C[C@H]3CCCN3[C@@]23C(=O)Nc2ccccc23)C1 (racemic)
0.86

Now try O=C1/C(=C/c2cccc3ccccc23)CN(C(=O)C[C@H]2C[C@H]3CCCN3[C@]23C(=O)Nc2ccccc23)C/C1=C\c1cccc2ccccc12 (racemic) .
1.74

* * *

target: Cholinesterase (Equus caballus, UniProt P81908); experiment: Inhibition of equine serum BuChE using S-butyrylthiocholine chloride substrate by Ellman's method based spectrophotometry
Sequence (P81908 whole entry): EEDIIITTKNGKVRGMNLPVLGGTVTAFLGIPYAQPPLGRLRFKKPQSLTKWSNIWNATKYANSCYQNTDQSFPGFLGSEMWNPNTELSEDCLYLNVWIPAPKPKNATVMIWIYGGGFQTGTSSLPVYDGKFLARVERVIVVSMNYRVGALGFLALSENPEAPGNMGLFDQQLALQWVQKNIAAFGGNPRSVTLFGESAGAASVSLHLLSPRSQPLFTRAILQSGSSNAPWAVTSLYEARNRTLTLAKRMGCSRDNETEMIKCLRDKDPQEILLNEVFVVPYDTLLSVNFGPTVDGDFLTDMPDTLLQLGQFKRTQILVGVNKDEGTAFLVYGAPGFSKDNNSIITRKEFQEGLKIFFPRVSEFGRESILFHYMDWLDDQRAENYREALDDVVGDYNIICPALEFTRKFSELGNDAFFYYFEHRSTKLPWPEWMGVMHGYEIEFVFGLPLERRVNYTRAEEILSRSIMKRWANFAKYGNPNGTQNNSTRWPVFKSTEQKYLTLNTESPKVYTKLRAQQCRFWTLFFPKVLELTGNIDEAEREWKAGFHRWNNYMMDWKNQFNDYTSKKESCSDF
Metric: pIC50
Bear in mind: pIC50 is minus log10 of a mol/L concentration; give just that figure.

Endpoint output: pIC50 of O=C(C[C@H]1C[C@H]2CCCN2[C@]12C(=O)Nc1ccccc12)N1C/C(=C\c2ccccc2Cl)C(=O)[C@]2(C[C@H]3CCCN3[C@@]23C(=O)Nc2ccccc23)C1 (racemic) . Value?
4.93

Next molecule: COc1ccccc1/C=C1\CN(C(=O)C[C@H]2C[C@H]3CCCN3[C@]23C(=O)Nc2ccccc23)C/C(=C\c2ccccc2OC)C1=O (racemic)
5.03

Please give the result for C=CC(=O)N1C/C(=C\c2cccc([N+](=O)[O-])c2)C(=O)/C(=C/c2cccc([N+](=O)[O-])c2)C1 too.
4.29

Now give it for O=C(C[C@H]1C[C@H]2CCCN2[C@]12C(=O)Nc1ccccc12)N1C/C(=C\c2cccc3ccccc23)C(=O)[C@]2(C[C@H]3CCCN3[C@@]23C(=O)Nc2ccccc23)C1 (racemic) too.
5.19

C=CC(=O)N1C/C(=C\c2ccc(C)cc2)C(=O)/C(=C/c2ccc(C)cc2)C1 ?
4.46

Now the same for O=C1/C(=C/c2ccc(Cl)cc2Cl)CN(C(=O)C[C@H]2C[C@H]3CCCN3[C@]23C(=O)Nc2ccccc23)C/C1=C\c1ccc(Cl)cc1Cl (racemic)
4.67

Moving on to the next molecule: O=C(C[C@H]1C[C@H]2CCCN2[C@]12C(=O)Nc1ccccc12)N1C/C(=C\c2cccc([N+](=O)[O-])c2)C(=O)[C@]2(C[C@H]3CCCN3[C@@]23C(=O)Nc2ccccc23)C1 (racemic)
4.61

Queued: O=C1/C(=C/c2cccc3ccccc23)CN(C(=O)C[C@H]2C[C@H]3CCCN3[C@]23C(=O)Nc2ccccc23)C/C1=C\c1cccc2ccccc12 (racemic)
4.93

Moving on to the next molecule: Cc1ccc(/C=C2\CN(C(=O)C[C@H]3C[C@H]4CCCN4[C@]34C(=O)Nc3ccccc34)C/C(=C\c3ccc(C)cc3)C2=O)cc1 (racemic)
4.60

Similarly, O=C1/C(=C/c2ccccc2Cl)CN(C(=O)C[C@H]2C[C@H]3CCCN3[C@]23C(=O)Nc2ccccc23)C/C1=C\c1ccccc1Cl (racemic) ?
4.70

What do you have for C=CC(=O)N1C/C(=C\c2ccccc2OC)C(=O)/C(=C/c2ccccc2OC)C1 ?
4.54

Also, C=CC(=O)N1C/C(=C\c2ccccc2C)C(=O)/C(=C/c2ccccc2C)C1 please.
4.52

Would you kindly repeat that for O=C1/C(=C/c2ccccc2)CN(C(=O)C[C@H]2C[C@H]3CCCN3[C@]23C(=O)Nc2ccccc23)C/C1=C\c1ccccc1 (racemic) ?
4.79

And then Cc1ccc(/C=C2\CN(C(=O)C[C@H]3C[C@H]4CCCN4[C@]34C(=O)Nc3ccccc34)C[C@@]3(C[C@H]4CCCN4[C@@]34C(=O)Nc3ccccc34)C2=O)cc1 (racemic) , what is it?
4.75

Likewise for O=C(C[C@H]1C[C@H]2CCCN2[C@]12C(=O)Nc1ccccc12)N1C/C(=C\c2ccccc2)C(=O)[C@]2(C[C@H]3CCCN3[C@@]23C(=O)Nc2ccccc23)C1 (racemic) ?
4.74

What do you have for C=CC(=O)N1C/C(=C\c2ccccc2Cl)C(=O)/C(=C/c2ccccc2Cl)C1 ?
4.44

Do the same for C=CC(=O)N1C/C(=C\c2ccc(Cl)cc2Cl)C(=O)/C(=C/c2ccc(Cl)cc2Cl)C1 please
4.53

Quick one: O=C1/C(=C/c2ccc(Cl)cc2)CN(C(=O)C[C@H]2C[C@H]3CCCN3[C@]23C(=O)Nc2ccccc23)C/C1=C\c1ccc(Cl)cc1 (racemic)
4.49

Repeat with COc1ccccc1/C=C1\CN(C(=O)C[C@H]2C[C@H]3CCCN3[C@]23C(=O)Nc2ccccc23)C[C@@]2(C[C@H]3CCCN3[C@@]23C(=O)Nc2ccccc23)C1=O (racemic)
4.72

And the next one, Cc1ccccc1/C=C1\CN(C(=O)C[C@H]2C[C@H]3CCCN3[C@]23C(=O)Nc2ccccc23)C/C(=C\c2ccccc2C)C1=O (racemic) ?
4.75

Can you check O=C1/C(=C/c2ccc(F)cc2)CN(C(=O)C[C@H]2C[C@H]3CCCN3[C@]23C(=O)Nc2ccccc23)C/C1=C\c1ccc(F)cc1 (racemic) next?
5.40

Moving on to O=C(C[C@H]1C[C@H]2CCCN2[C@]12C(=O)Nc1ccccc12)N1C/C(=C\c2ccccc2F)C(=O)[C@]2(C[C@H]3CCCN3[C@@]23C(=O)Nc2ccccc23)C1 (racemic)
5.04

Let us now turn to C=CC(=O)N1C/C(=C\c2ccc(F)cc2)C(=O)/C(=C/c2ccc(F)cc2)C1
4.51

And what about the molecule C=CC(=O)N1C/C(=C\c2ccccc2F)C(=O)/C(=C/c2ccccc2F)C1 ?
4.27

# iterate: O=C(C[C@H]1C[C@H]2CCCN2[C@]12C(=O)Nc1ccccc12)N1C/C(=C\c2ccc(Cl)cc2Cl)C(=O)[C@]2(C[C@H]3CCCN3[C@@]23C(=O)Nc2ccccc23)C1 (racemic)
5.02
